# measurement.target: T1, Tbar-aLhr2-Dom4 (Thermococcus barophilus, UniProt F0LJX3 514-863)
# T1 sequence: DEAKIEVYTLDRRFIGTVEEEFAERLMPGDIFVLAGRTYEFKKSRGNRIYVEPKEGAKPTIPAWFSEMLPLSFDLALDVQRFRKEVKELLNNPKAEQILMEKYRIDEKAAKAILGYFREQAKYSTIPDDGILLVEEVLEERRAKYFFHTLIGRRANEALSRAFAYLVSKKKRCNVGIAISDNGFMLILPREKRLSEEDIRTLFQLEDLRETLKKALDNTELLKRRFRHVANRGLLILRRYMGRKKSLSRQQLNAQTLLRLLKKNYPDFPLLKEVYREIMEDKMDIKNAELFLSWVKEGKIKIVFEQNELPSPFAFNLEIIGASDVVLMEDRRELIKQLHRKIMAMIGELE
# experiment.summary: filter binding; 5 mM Mg2+; 25 mM Tris-HCl pH 8, 50 mM NaAc, 5 mM MgCl2, 2.5 mM beta-mercaptoethanol; protein preincubated 10 min 65 C, binding 15 min 30 C; 0.5 nM substrate (Methods); Resu
# settings: protein: recombinant; tags: untagged; label: 5'-32P; single strand
Catalogue of binders with associated Kd
Your reply should be a number followed by the unit it is expressed in.

1) GGACATGCTGTCTAGAGACTATCGAT (ssDNA) [DNA26] = 277 nM
2) ATCGATAGTCTCTAGACAGCATGTCCTAGCAAGCCAGAATTCGGCAGCGT (ssDNA) [DNA50] = 162 nM
3) ACGCUGCCGAAUUCUGGCUUGCUAGG (ssRNA) [RNA26] = 241 nM

Consider now this further binder.
Exercise: Entry under review: AUCGAUAGUCUCUAGACAGCAUGUCCUAGCAAGCCAGAAUUCGGCAGCGU (ssRNA) [RNA50] . Reported Kd?
Key: 161 nM
